Assay method text: Pharmacokinetic study in Beagle dogs
Assay type: in vivo
Assay context: both sexes, dog, plasma, Beagles, IV, 0.3 mg/kg
Method: (4) Pharmacokinetic Study in Beagle Dogs Objective: To determine the concentration of the test compound in plasma at various time points after intravenous and intragastric administration in male and female Beagle dogs using the LC/MS/MS method. An appropriate amount of the sample was weighed and prepared into 0.2 mg/mL and 0.3 mg/mL solutions, stirred until a clear solution was obtained, with 20% SBE-β-CD as the vehicle. […]
Observable: clearance
Just so you know, I need the unit written after the number.

Look up clearance: "CS(=O)(=O)O.FCCCN1CC[C@H](Nc2cnc(C3=C(CC(F)(F)F)CCCc4c3ccc3[nH]nc(F)c43)cn2)C1" 0.228 L/h/kg

* * *

Tested system: CYP3A (Homo sapiens)
Sequence (P08684 2-503): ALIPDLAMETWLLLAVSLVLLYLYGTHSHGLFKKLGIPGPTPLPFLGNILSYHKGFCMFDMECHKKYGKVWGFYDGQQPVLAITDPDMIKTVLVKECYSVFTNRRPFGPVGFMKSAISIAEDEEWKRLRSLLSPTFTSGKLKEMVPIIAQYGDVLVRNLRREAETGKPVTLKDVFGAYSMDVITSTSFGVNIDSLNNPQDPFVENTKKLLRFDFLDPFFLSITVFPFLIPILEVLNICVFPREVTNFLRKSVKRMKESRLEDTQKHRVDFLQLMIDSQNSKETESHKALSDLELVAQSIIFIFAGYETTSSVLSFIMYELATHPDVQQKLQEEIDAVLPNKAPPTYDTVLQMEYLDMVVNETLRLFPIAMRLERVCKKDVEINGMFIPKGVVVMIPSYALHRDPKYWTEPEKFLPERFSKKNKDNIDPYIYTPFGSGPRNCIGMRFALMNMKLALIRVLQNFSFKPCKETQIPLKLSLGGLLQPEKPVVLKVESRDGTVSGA
Assay method text: Inhibition of cytochrome P450 isozymes in human liver microsomes, CYP3A
Format: in vitro ADME
Assay context: probe midazolam, midazolam as the substrate
Observable: IC50 at 3 min (µM)
Give bare numbers, in µM.

Quick one: IC50 at 3 min of "FCCCN1CC[C@H](Nc2cnc(C3=C(CC(F)(F)F)CCCc4c3ccc3[nH]nc(F)c43)cn2)C1" ? 8.38

* * *

Assay method text: Pharmacokinetic study in rats
Assay type: in vivo
Assay context: both sexes, Sprague-Dawley, rat, plasma, IV, 1 mg/kg
Observable: AUC(0-t) (µM·h)
One number for each entry, in µM·h.

# query: AUC(0-t) of entry "CS(=O)(=O)O.FCCCN1CC[C@H](Nc2cnc(C3=C(CC(F)(F)F)CCCc4c3ccc3[nH]nc(F)c43)cn2)C1" 1.71
